The measurements presented in this section are drawn from PubChem BioAssay AID488890.

# protocol: growth inhibition of non-replicating M. tuberculosis (AID 488890);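 also: plate controls were DMSO cells for no effect and high antibiotic wells for full effect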
# assay.setup: Mycobacterium tuberculosis non-replicating, at 25 µM, stronger effect = higher value
About 1,300 (0.41%) of roughly 320,000 compounds were called active. Another 3% or so got no clear call; they are omitted. Not all results are given here. Potency and affinity values are given separately.
Kindly supply the reported inhibition values for the records listed here.
Quick reminder: number only, in %, skip the unit.

### Prompt Retrieve inhibition measured for COc1ccccc1C(=O)CC(=O)c1ccccc1 and print it.
### Response 52.4

### Prompt Retrieve inhibition measured for COc1ccc(-c2ccc(CNCc3ccccn3)o2)cc1Cl and print it.
### Response 78.7

### Prompt Retrieve inhibition measured for COc1ccccc1C(=O)N1CCC(C(=O)c2ccc(F)cc2)CC1 and print it.
### Response 5.17

### Prompt Retrieve inhibition measured for NC(=O)C1CCN(C(=O)c2ccc(-c3ccccc3Cl)o2)CC1 and print it.
### Response -8.98

### Prompt Retrieve inhibition measured for Cc1c(C(=O)NCc2ccccn2)oc2c(Cl)cccc12 and print it.
### Response 15.1

### Prompt Retrieve inhibition measured for CC(=O)N1CCN(c2ccc(NC(=O)c3ccc4c(c3)OCCO4)cc2Cl)CC1 and print it.
### Response 27.7

* * *

# protocol: growth inhibition of non-replicating M. tuberculosis (AID 488890);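 also: plate controls were DMSO cells for no effect and high antibiotic wells for full effect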
# assay.setup: Mycobacterium tuberculosis non-replicating, at 25 µM, stronger effect = higher value
The whole screen tested about 320,000 compounds, of which about 1,300 (0.41%) were called active. Not shown: some 3% with an inconclusive outcome. The list is a sample of the results. Measured potencies and affinities stand elsewhere.
assay.endpoint: inhibition (%)
Quick reminder: number only, in %, skip the unit.

### Prompt Retrieve inhibition measured for COC1(c2cc(-c3ccccc3)nc(N)n2)CCCCC1 and print it.
### Response 39.4

### Prompt Retrieve inhibition measured for O=C(O)c1c2c(nc3ccccc13)-c1ccccc1CC2 and print it.
### Response -7.78

### Prompt Retrieve inhibition measured for CCCN(C(=O)c1ccco1)c1nnc(-c2ccccc2C)s1 and print it.
### Response 72.7

### Prompt Retrieve inhibition measured for NS(=O)(=O)c1ccc(CCNCc2cc(Br)ccc2OCc2ccccc2)cc1 and print it.
### Response 36

### Prompt Retrieve inhibition measured for CCCOc1ccc2c(C)c(CC(=O)OC)c(=O)oc2c1 and print it.
### Response 3.51

### Prompt Retrieve inhibition measured for N#Cc1ccc(C(=O)CN2CCN(c3ccccc3)CC2)cc1 and print it.
### Response 3.58

### Prompt Retrieve inhibition measured for COc1cccc2nc3cc(C)c(C)cc3nc12 and print it.
### Response 39.2

### Prompt Retrieve inhibition measured for CC(CN1CCN(C/C=C/c2ccccc2)CC1)c1ccccc1 (stereo not drawn) and print it.
### Response 2.29

### Prompt Retrieve inhibition measured for Cc1onc(-c2c(Cl)cccc2Cl)c1C(=O)NNc1ccccc1 and print it.
### Response 77.8

### Prompt Retrieve inhibition measured for Cc1ccc(S(=O)(=O)CC(=O)Nc2ccc(Cl)cn2)cc1 and print it.
### Response 53.5

### Prompt Retrieve inhibition measured for Cc1ccc(S(=O)(=O)NCc2ccccc2)cc1C(=O)NCCc1ccc(S(N)(=O)=O)cc1 and print it.
### Response -1.65

### Prompt Retrieve inhibition measured for CCOC(=O)c1ccc(NC(=O)CCc2ccc(C)o2)cc1 and print it.
### Response 79.2

### Prompt Retrieve inhibition measured for O=C1NC(=O)/C(=C/c2ccco2)N1 and print it.
### Response -3.62

### Prompt Retrieve inhibition measured for O=C(Nc1ccccc1N1CCOCC1)c1ccc2ccccc2n1 and print it.
### Response 32.1

### Prompt Retrieve inhibition measured for COC(=O)c1cc2c(C)c(C)c3ccccn3c-2c1C(=O)OC and print it.
### Response 2.38

### Prompt Retrieve inhibition measured for COC1CCCN(Cc2c(C(=O)N3CCN(C4CCCCC4)CC3)nc3ccccn23)C1 (stereo not drawn) and print it.
### Response 6.53

### Prompt Retrieve inhibition measured for CCN(CC)C(=O)Oc1ccc2c(=O)c(-c3ccccc3)coc2c1 and print it.
### Response 62.3

### Prompt Retrieve inhibition measured for C[C@]12CCC(=O)C=C1CCC1C2CC[C@@]2(C)C1CC[C@]2(C)O (stereo partly drawn) and print it.
### Response 11.1

### Prompt Retrieve inhibition measured for COc1cccc(-n2ccnc2SCC(=O)Nc2ccccc2)c1 and print it.
### Response 2.78

### Prompt Retrieve inhibition measured for CC1(C)CC(=O)c2cnc(NCC3CCCO3)nc2C1 (stereo not drawn) and print it.
### Response -8.53

### Prompt Retrieve inhibition measured for Cc1ccc(Cn2c(=N)n(CC(O)c3ccco3)c3ccccc32)cc1 (stereo not drawn) and print it.
### Response 18.9

### Prompt Retrieve inhibition measured for O=C(O)c1ccc2noc(-c3ccccc3)c2c1 and print it.
### Response 26.3

### Prompt Retrieve inhibition measured for COc1ccc(Nc2cc(C)nc(N3CCOCC3)n2)cc1 and print it.
### Response 11.6

### Prompt Retrieve inhibition measured for CCOc1ccc(Nc2cc(C)nc(N3CCOCC3)n2)cc1 and print it.
### Response 4.96

### Prompt Retrieve inhibition measured for O=C(O)c1cnc(-c2ccccc2)nc1Sc1cccc(Cl)c1 and print it.
### Response 53.3

### Prompt Retrieve inhibition measured for COC(=O)C(NC(C)=O)(Nc1nc2ccc(S(C)(=O)=O)cc2s1)C(F)(F)F (stereo not drawn) and print it.
### Response -2.55

### Prompt Retrieve inhibition measured for COc1cccc(NC(=O)C(C)N2C(=O)c3ccccc3S2(=O)=O)c1 (stereo not drawn) and print it.
### Response -2.17

### Prompt Retrieve inhibition measured for CC(=O)c1ccc(NC(=O)CNC2CCCCC2)cc1 and print it.
### Response -1.52

### Prompt Retrieve inhibition measured for O=C(CO/N=C/c1c(Cl)cccc1Cl)NNC(=O)c1ccc(Cl)cc1 and print it.
### Response -1.83

### Prompt Retrieve inhibition measured for CNc1cc(C)nc(-n2nc(C)cc2C)n1 and print it.
### Response 77.6

### Prompt Retrieve inhibition measured for CCCC1(CCC)NC(=O)N(CC(=O)N2CCN(C(=O)c3ccco3)CC2)C1=O and print it.
### Response 0.73

### Prompt Retrieve inhibition measured for COc1ccc(N(CC(=O)NCCc2ccccc2)C(=O)CCC(=O)Nc2ccccn2)cc1 and print it.
### Response -3.83

### Prompt Retrieve inhibition measured for CCC(C(=O)Nc1ccc2c(c1)OCCO2)n1nnc2ccccc2c1=O (stereo not drawn) and print it.
### Response 6.85

### Prompt Retrieve inhibition measured for COc1cc(C(=O)O)c2ccccc2n1 and print it.
### Response -12.4

### Prompt Retrieve inhibition measured for CSCCC(NC(=O)OCc1ccccc1)C(=O)O (stereo not drawn) and print it.
### Response -8.32

### Prompt Retrieve inhibition measured for CC(=O)Nc1ccc(C(=O)OCc2ccc(F)cc2Cl)cc1 and print it.
### Response 50

### Prompt Retrieve inhibition measured for Cc1ccc(CCC(=O)Nc2ccc(CC(=O)O)cc2)o1 and print it.
### Response 9.94

### Prompt Retrieve inhibition measured for C/C(=N\OCC(=O)OCC(=O)Nc1cc(S(C)(=O)=O)ccc1Cl)c1ccc2c(c1)OCO2 and print it.
### Response 7.45

### Prompt Retrieve inhibition measured for CC(C)OC(=O)c1cccc2c1C(=O)c1ccccc1-2 and print it.
### Response 1.02

### Prompt Retrieve inhibition measured for CC(=O)Nc1nnc(C2=COCCO2)o1 and print it.
### Response 3.17

### Prompt Retrieve inhibition measured for Cc1ccc(CCC(=O)Nc2ccc(C#N)cc2)o1 and print it.
### Response 50.3

### Prompt Retrieve inhibition measured for CC(=O)Nc1ccc(NC(=O)CCc2ccc(C)o2)cc1 and print it.
### Response 16.7

### Prompt Retrieve inhibition measured for CCCn1c(NC(=O)c2cccc(S(=O)(=O)N3CCCC3)c2)nc2ccccc21 and print it.
### Response 12.3

### Prompt Retrieve inhibition measured for CCOC(=O)c1sc(NC(=O)CSc2ccccn2)c(C#N)c1C and print it.
### Response 5.94

### Prompt Retrieve inhibition measured for Cc1ccc(CS(=O)(=O)CCC(=O)N2CCC3(CC2)OCCO3)cc1 and print it.
### Response -11.2

### Prompt Retrieve inhibition measured for CC(=O)Oc1ccc2c(=O)c(-c3ccccc3)coc2c1 and print it.
### Response 15.7

### Prompt Retrieve inhibition measured for Cc1cc(C)n(-c2nnc(C)c(=O)[nH]2)n1 and print it.
### Response 1.82

### Prompt Retrieve inhibition measured for Cc1cc(NCCO)nc(-n2nc(C)cc2C)n1 and print it.
### Response 39.2

* * *

# protocol: growth inhibition of non-replicating M. tuberculosis (AID 488890);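 also: plate controls were DMSO cells for no effect and high antibiotic wells for full effect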
# assay.setup: Mycobacterium tuberculosis non-replicating, at 25 µM, stronger effect = higher value
Out of some 320,000 compounds screened, about 1,300 (0.41%) were called active. Roughly 3% stayed inconclusive and do not appear here. Only a sample is shown. Entries with a potency or affinity are not part of this list.
Kindly supply the reported inhibition values for the records listed here.
Quick reminder: number only, in %, skip the unit.

### Prompt Retrieve inhibition measured for COc1ccc(/C=N/NC(=O)c2ccc3c(c2)OCO3)c(C(=O)O)c1OC and print it.
### Response 37.5

### Prompt Retrieve inhibition measured for O=C1CSC(=Nc2cccc([N+](=O)[O-])c2)N1 and print it.
### Response 17.5

### Prompt Retrieve inhibition measured for CCCCC(=O)N=c1sc2cc(S(C)(=O)=O)ccc2n1C and print it.
### Response -0.02

### Prompt Retrieve inhibition measured for Cc1ccccc1N1CCN(Cc2ccc(Br)o2)CC1 and print it.
### Response 35.5

### Prompt Retrieve inhibition measured for Cc1ccc(S(=O)(=O)NCCc2nnc3ccc(SCC(=O)Nc4nc(C)cs4)nn23)cc1 and print it.
### Response -6.91

### Prompt Retrieve inhibition measured for Cc1ccccc1N1CCN(Cc2cc3c(cc2[N+](=O)[O-])OCO3)CC1 and print it.
### Response 45.5

### Prompt Retrieve inhibition measured for Cc1cccc(N2CCN(Cc3ccoc3)CC2)c1C and print it.
### Response 11.8

### Prompt Retrieve inhibition measured for Cc1ccc(CN2CCN(c3ccccc3Cl)CC2)o1 and print it.
### Response -0.79

### Prompt Retrieve inhibition measured for CO/N=C(\C)c1ncc(C(F)(F)F)cc1N1CCOCC1 and print it.
### Response -6.77

### Prompt Retrieve inhibition measured for COc1ccc(N2CCN(Cc3nc4cc(Cl)ccc4c(=O)[nH]3)CC2)cc1 and print it.
### Response 0.72

### Prompt Retrieve inhibition measured for Cc1cccc(N2CCN(Cc3ccc(Br)o3)CC2)c1C and print it.
### Response 51.8
